Would you mind telling me the reported Decomposition products (% w/w), relative to the amount of tasquinimod in capsule of each entry?
Assay: Stability testing of capsules at 25° C./60% RH in water impermeable blister pack
Format: physicochemical
Details: 0.5 mg capsules of Example 28, 6 months
Give the number; % w/w is assumed, so skip it.

So for CNc1ccc(C(F)(F)F)cc1 [Compound I, N-methyl-4-(trifluoromethyl)aniline] , the logged Decomposition products (% w/w), relative to the amount of tasquinimod in capsule turned out to be 0.05

So for COc1cccc2c1c(O)cc(=O)n2C [Compound III] , the logged Decomposition products (% w/w), relative to the amount of tasquinimod in capsule turned out to be 0.09
